Source of measurements: patent US9850283B2

target: LK35.2-hPD-L1 cells / PE-labeled PD-1-Ig (Homo sapiens, UniProt Q9NZQ7); construct: expressed in transfected cells; host or cells: LK35.2 mouse B cell line; assay: LK35.2-hPD-L1 cell binding high-content screening assay; assay type: cell-based; settings: cluster symbol; cell line of CBA not given (LK35.2-hPD-L1 or 293T-hPD-L1); read-out: CBA IC50 cluster
Sequence (Q9NZQ7 19-290): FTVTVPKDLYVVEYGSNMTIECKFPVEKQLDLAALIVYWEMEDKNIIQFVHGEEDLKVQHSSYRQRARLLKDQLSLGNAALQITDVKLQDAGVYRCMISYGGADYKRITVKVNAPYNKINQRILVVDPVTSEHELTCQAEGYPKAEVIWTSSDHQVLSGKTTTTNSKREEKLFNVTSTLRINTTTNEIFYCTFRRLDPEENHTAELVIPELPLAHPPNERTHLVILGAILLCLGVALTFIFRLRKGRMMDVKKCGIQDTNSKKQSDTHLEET
Positions of bridges follow the written chain, without caps; N, C: chain ends. Non-standard residues stand in square brackets, D forms with d. Residues, ends and D or L forms follow the SMILES beside them. Ala(indol-4-yl) = N[C@@H](Cc1cccc2[nH]ccc12)C(=O)O; Tyr(3,5-Br2) = N[C@@H](Cc1cc(Br)c(O)c(Br)c1)C(=O)O; Phe(4-CH2NH2) = NCc1ccc(C[C@H](N)C(=O)O)cc1; Phe(3-F) = N[C@@H](Cc1cccc(F)c1)C(=O)O; Phe(3-Me) = Cc1cccc(C[C@H](N)C(=O)O)c1; Bta = N[C@@H](Cc1csc2ccccc12)C(=O)O; Hyp = O=C(O)[C@@H]1C[C@@H](O)CN1; NMeF = CN[C@@H](Cc1ccccc1)C(=O)O; NMeNle = CCCC[C@H](NC)C(=O)O; NMeA = CN[C@@H](C)C(=O)O; Dap = NC[C@H](N)C(=O)O; Sar = CNCC(=O)O
Measurement Kind: IC50

Some compounds with recorded IC50:
>>> data_value("CCCC[C@H]1C(=O)N(C)[C@@H](CCCC)C(=O)N[C@@H](CCCCN)C(=O)N[C@H](C(=O)NCC(N)=O)CSCC(=O)N[C@@H](Cc2ccc(O)cc2)C(=O)N(C)[C@@H](C)C(=O)N[C@@H](CC(N)=O)C(=O)N2CCC[C@H]2C(=O)N[C@@H](Cc2cnc[nH]2)C(=O)N[C@@H](CC(C)C)C(=O)N2CCC[C@H]2C(=O)N[C@@H](Cc2c[nH]c3ccccc23)C(=O)N[C@@H](CO)C(=O)N[C@@H](Cc2csc3ccccc23)C(=O)N1C [Example 1041] ({CH2CO}-Y[NMeA]NPHLPWS[Bta][NMeNle][NMeNle]KCG-NH2; thioether N-14)")
"0.158 to 4.71 nM"
>>> data_value("CCCC[C@H]1C(=O)N(C)CC(=O)N[C@@H](CC(=O)O)C(=O)N[C@@H](C(C)C)C(=O)N(C)[C@@H](Cc2ccccc2)C(=O)N[C@@H](Cc2ccc(O)cc2)C(=O)N(C)CC(=O)N[C@@H](Cc2c[nH]c3ccccc23)C(=O)N[C@@H](Cc2cc(Br)c(O)c(Br)c2)C(=O)N[C@@H](CC(C)C)C(=O)N[C@H](C(=O)NCC(N)=O)CSCC(=O)N[C@@H](Cc2ccccc2)C(=O)N(C)[C@@H](Cc2ccccc2)C(=O)N1C [Example 3112] ({CH2CO}-F[NMeF][NMeNle][Sar]DV[NMeF]Y[Sar]W[Tyr(3,5-Br2)]LCG-NH2; thioether N-13)")
"> 74.3 nM"
>>> data_value("CCCC[C@H]1C(=O)N(C)CC(=O)N[C@@H](CC(=O)O)C(=O)N[C@@H](C(C)C)C(=O)N(C)[C@@H](Cc2ccccc2)C(=O)N[C@@H](Cc2cccc3[nH]ccc23)C(=O)N(C)CC(=O)N[C@@H](Cc2c[nH]c3ccccc23)C(=O)N[C@@H](Cc2ccc(O)cc2)C(=O)N[C@@H](CC(C)C)C(=O)N[C@H](C(=O)NCC(N)=O)CSCC(=O)N[C@@H](Cc2ccccc2)C(=O)N(C)[C@@H](Cc2ccccc2)C(=O)N1C [Example 3110] ({CH2CO}-F[NMeF][NMeNle][Sar]DV[NMeF][Ala(indol-4-yl)][Sar]WYLCG-NH2; thioether N-13)")
"0.158 to 4.71 nM"
>>> data_value("CCCC[C@H]1C(=O)N(C)[C@@H](CCCC)C(=O)N[C@@H](CCCNC(=N)N)C(=O)N[C@H](C(=O)NCC(N)=O)CSCC(=O)N[C@@H](Cc2ccccc2)C(=O)N(C)[C@@H](C)C(=O)N[C@@H](CC(N)=O)C(=O)N2CCC[C@H]2C(=O)N[C@@H](CN)C(=O)N[C@@H](CC(C)C)C(=O)N(C)CC(=O)N[C@@H](Cc2c[nH]c3ccccc23)C(=O)N[C@@H](CO)C(=O)N[C@@H](Cc2c[nH]c3ccccc23)C(=O)N1C [Example 1060] ({CH2CO}-F[NMeA]NP[Dap]L[Sar]WSW[NMeNle][NMeNle]RCG-NH2; thioether N-14)")
"4.78 to 72.9 nM"
>>> data_value("CCCC[C@H]1C(=O)N(C)[C@@H](CCCC)C(=O)N[C@@H](C)C(=O)N[C@H](C(=O)NCC(N)=O)CSCC(=O)N[C@@H](Cc2ccc(O)cc2)C(=O)N(C)[C@@H](C)C(=O)N[C@@H](CC(=O)O)C(=O)N2CCC[C@H]2C(=O)N[C@@H](Cc2cnc[nH]2)C(=O)N[C@@H](CC(C)C)C(=O)N2CCC[C@H]2C(=O)N[C@@H](Cc2c[nH]c3ccccc23)C(=O)N[C@@H](CO)C(=O)N[C@@H](Cc2c[nH]c3ccccc23)C(=O)N1C [Example 1121] ({CH2CO}-Y[NMeA]DPHLPWSW[NMeNle][NMeNle]ACG-NH2; thioether N-14)")
"0.158 to 4.71 nM"
>>> data_value("CCCC[C@H]1C(=O)N(C)CC(=O)N[C@@H](CC(=O)O)C(=O)N[C@@H](C(C)C)C(=O)N(C)[C@@H](Cc2ccccc2)C(=O)N[C@@H](Cc2ccc(CN)cc2)C(=O)N(C)CC(=O)N[C@@H](Cc2csc3ccccc23)C(=O)N[C@@H](Cc2ccc(O)cc2)C(=O)N[C@@H](CC(C)C)C(=O)N[C@H](C(=O)NCC(N)=O)CSCC(=O)N[C@@H](Cc2cccc(F)c2)C(=O)N(C)[C@@H](Cc2ccccc2)C(=O)N1C [Example 3121] ({CH2CO}-[Phe(3-F)][NMeF][NMeNle][Sar]DV[NMeF][Phe(4-CH2NH2)][Sar][Bta]YLCG-NH2; thioether N-13)")
"0.158 to 4.71 nM"
>>> data_value("CCCC[C@H]1C(=O)N(C)CC(=O)N[C@@H](CC(=O)O)C(=O)N[C@@H](C(C)C)C(=O)N[C@@H](Cc2cccc(C)c2)C(=O)N[C@@H](Cc2ccc(O)cc2)C(=O)N(C)CC(=O)N[C@@H](Cc2c[nH]c3ccccc23)C(=O)N[C@@H](Cc2ccc(O)cc2)C(=O)N[C@@H](CC(C)C)C(=O)N[C@H](C(=O)NCC(N)=O)CSCC(=O)N[C@@H](Cc2ccccc2)C(=O)N(C)[C@@H](Cc2ccccc2)C(=O)N1C [Example 3134] ({CH2CO}-F[NMeF][NMeNle][Sar]DV[Phe(3-Me)]Y[Sar]WYLCG-NH2; thioether N-13)")
"> 74.3 nM"

Give me measured IC50, please, for this compound: CCCC[C@H]1C(=O)N(C)[C@@H](CCCC)C(=O)N[C@@H](CCCNC(=N)N)C(=O)N[C@H](C(=O)NCC(N)=O)CSCC(=O)N[C@@H](Cc2ccc(O)cc2)C(=O)N(C)[C@@H](C)C(=O)N[C@@H](CC(N)=O)C(=O)N2CCC[C@H]2C(=O)N[C@@H](CN)C(=O)N[C@@H](CC(C)C)C(=O)N2C[C@H](O)C[C@H]2C(=O)N[C@@H](Cc2c[nH]c3ccccc23)C(=O)N[C@@H](CO)C(=O)N[C@@H](Cc2c[nH]c3ccccc23)C(=O)N1C [Example 1114] ({CH2CO}-Y[NMeA]NP[Dap]L[Hyp]WSW[NMeNle][NMeNle]RCG-NH2; thioether N-14)
0.158 to 4.71 nM
